Just for reference, PubChem BioAssay (NCI) is where these values come from.

Listed next: entries and their corresponding TGI.
Tested on: A498 renal
Assay: NCI tumour cell line growth inhibition, 48 h

CC(=O)CC12NC(=O)N(C)N=C1N(C)C(=O)N(C)C2=O (centres undefined)	> 100 µM
CN1c2ccccc2S(=O)(=O)n2c(COc3ccccc3)nnc21	> 100 µM
CCC1OC2C(CC=C(C)C)=C3OC(C)(O)C(C)(CC)C(=O)C3=C3OC(=O)C=C1C32 (centres undefined)	> 100 µM
O=C1c2ccccc2-c2ccccc2C1(Cl)Cl	2.77 µM
NCCN(CCN)/[N+]([O-])=N/O	> 100 µM
COc1cc2nc3n(c(=O)c2cc1OC)CCCCC3	> 100 µM

Input: Query: TGI; subject: COc1ccc(Oc2nc3c(N)cc(C(F)(F)F)cc3nc2-c2ccccc2)cc1
Output: 55.6 µM

Input: Same question, COC(=O)CN(CC1O[C@@H]2OC(C)(C)O[C@@H]2C1NC(C)=O)C(=O)OCc1ccccc1 (some centres undefined) this time
Output: > 100 µM

Input: Could you do the same for COc1ccc(N2C(=O)C3C=CC(n4[nH]c(=O)n(Cc5ccccc5)c4=O)CC3C2=O)cc1 (centres undefined) , please?
Output: > 100 µM
